Assay procedure: Ratio of compound CC50 to AZT CC50 for human MOLT3 cells
Assay type: cell-based
Assay conditions: MOLT-3 cells
Field: selectivity ratio. Provide a value for each of the compounds that follow.

Form: compound = CCOC(=O)[C@@]1(n2ccc(=O)[nH]c2=O)C[C@H](P(=O)(OCC)OCC)N(C)O1 (racemic) ; selectivity ratio = 83

Quick note, selectivity ratio for CCOC(=O)[C@@]1(n2cc(F)c(=O)[nH]c2=O)C[C@H](P(=O)(OCC)OCC)N(C)O1 (racemic) landed at 83

====

Assay procedure: Cytotoxicity against human MOLT3 cells by MTS assay
Type: cell-based
Assay conditions: MOLT-3 cells
Task for the reader: assign each of the following compounds its reported CC50.

In plain terms, `Cc1cn([C@H]2C[C@H](N=[N+]=[N-])[C@@H](CO)O2)c(=O)[nH]c1=O` has a documented CC50 of 12.1 µM

// field: CC50; key: CCOC(=O)[C@@]1(n2cc(C)c(=O)[nH]c2=O)C[C@H](P(=O)(OCC)OCC)N(C)O1 (racemic) ; value = > 1000 µM

Record CCOC(=O)[C@@]1(n2ccc(NC(C)=O)nc2=O)C[C@H](P(=O)(OCC)OCC)N(C)O1 (racemic) , field CC50: > 1000 µM

Entry CCOC(=O)[C@@]1(n2ccc(N)nc2=O)C[C@H](P(=O)(OCC)OCC)N(C)O1 (racemic) ; CC50 = > 1000 µM

The recorded CC50 for CCOC(=O)[C@@]1(n2ccc(=O)[nH]c2=O)C[C@H](P(=O)(OCC)OCC)N(C)O1 (racemic) is > 1000 µM

Lab note: measured CC50 of CCOC(=O)[C@@]1(n2cc(F)c(=O)[nH]c2=O)C[C@H](P(=O)(OCC)OCC)N(C)O1 (racemic) was > 1000 µM
